# Procedure details: solvent given as SMILES
# Run conditions: in CC#N
Items are presented alongside their recorded emission maximum.
Measured quantity: emission maximum (nm)

{"columns": ["Substance smiles", "Measured quantity", "Endpoint value"],
 "data": [
  ["COc1ccc(-c2csc(/C(C#N)=C/c3c(Cl)cccc3Cl)n2)cc1", "emission maximum", 550],
  ["O=c1c2cc(Cl)ccc2nc2n1[B-](F)(F)[n+]1ccccc1-2", "emission maximum", 439],
  ["O=C1c2ccccc2-c2c(-c3ccccc3O)[nH]c(=O)n21", "emission maximum", 480],
  ["CCCCCCCCC1(CCCCCCCC)c2cc(C=O)ccc2-c2ccc(/C=C/c3ccc(N(c4ccccc4)c4ccccc4)cc3)cc21", "emission maximum", 486],
  ["CCCCCCCCN1c2ccc(C#Cc3ccc(OC)cc3)cc2Sc2cc(C=O)ccc21", "emission maximum", 538],
  ["CC1=CC(C)=[N+]2C1=C(c1c3ccccc3c(-c3ccccc3)c3ccccc13)c1c(C)cc(C)n1[B-]2(F)F", "emission maximum", 508],
  ["COc1ccc(-c2nc(/C(C#N)=C/c3ccc(Cl)cc3)sc2-c2ccc(OC)cc2)cc1", "emission maximum", 553],
  ["CNc1ccc2c(c1)-c1ccccc1C2=O", "emission maximum", 548],
  ["C(C#Cc1ccc2ccc3cccc4ccc1c2c34)#Cc1cccc2ccccc12", "emission maximum", 420],
  ["COc1c(-c2ccc(N(C)C)cc2)oc2ccccc2c1=O", "emission maximum", 490.48]
]}

* * *

# Procedure details: solvent given as SMILES
# Run conditions: in C1COCCO1
Measured emission maximum accompanies every entry in the list below.

{"columns": ["Compound", "emission maximum (nm)"],
 "data": [
  ["COc1ccc2c(c1)CCc1c-2nc(N)c(C#N)c1-c1ccc(Br)cc1", 412],
  ["CN1C(=O)/C(=C/c2ccncc2)N=C1/C=C/c1ccccc1", 546],
  ["N#Cc1nc2c3ccc(-n4c5ccccc5c5ccccc54)cc3c3cc(-n4c5ccccc5c5ccccc54)ccc3c2nc1C#N", 568.06],
  ["N#Cc1ccc(/C=C2\\C=C(c3ccccc3)OC2=O)cc1", 494],
  ["c1ccc(-c2ccc(-c3ccc(-c4ccccc4)cc3)cc2)cc1", 369],
  ["F[B-]1(F)n2c(-c3ccccc3)cnc2-c2cccc[n+]21", 509],
  ["COc1cc(N(c2ccccc2)c2ccc(C=C(C#N)C#N)c(OC)c2)ccc1C=C(C#N)C#N", 520],
  ["Cc1ccc(C(=O)/C=C2\\C(=O)Nc3ccccc32)cc1C", 397],
  ["CC(C)(C)c1cc(-c2ccc(-c3cc(C(C)(C)C)cc(C(C)(C)C)c3)cc2)cc(C(C)(C)C)c1", 349],
  ["CNc1ncc2nc(C(=O)OC)n(Cc3ccccc3)c2n1", 405],
  ["COC(=O)/C=C/c1ccc2ccc3cccc4ccc1c2c34", 422.5],
  ["CN(C)c1ccc(/C=C/C=C/c2ccc([N+](=O)[O-])c(O)c2)cc1", 634],
  ["CN(C)c1ccc(/C=C/c2nc3cc(Br)ccc3nc2-c2ccccc2)cc1", 555],
  ["C=Cc1ccc(-c2ccc(-c3nnc(-c4ccc(-c5nnc(-c6ccc(-c7ccc(C=C)cc7)s6)o5)cc4)o3)s2)cc1", 397],
  ["CCOC(=O)C1CC(c2c(C#N)c(C)nn2-c2ccccc2)=CN1c1ccc(Br)cc1 (configuration not stated)", 480],
  ["c1ccc(Nc2nc(Nc3ccccc3)nc(Nc3ccc4cc5ccccc5cc4c3)n2)cc1", 442],
  ["CN(C)c1ccc(/C=C/C(=O)O)cc1", 414],
  ["COc1cc(N(c2ccc(C=C(C#N)C#N)c(OC)c2)c2ccc(C=C(C#N)C#N)c(OC)c2)ccc1C=C(C#N)C#N", 521],
  ["C=CCOC(=O)C(C#N)=C1C=C(/C=C/c2ccc(N(C)C)cc2)OC(/C=C/c2ccc(N(C)C)cc2)=C1", 564],
  ["CCC[n+]1ccc(/C=C/c2ccc(N(C)C)cc2)cc1", 557],
  ["Cc1c2ccncc2c(C)c2c1[nH]c1ccccc12", 410],
  ["CCCCNc1ccc(NCCCC)c2c1C(=O)c1ccccc1C2=O", 672]
]}

* * *

# Procedure details: solvent given as SMILES
# Run conditions: in ClCCl
Measured quantity: emission maximum (nm)

{"columns": ["Compound", "Endpoint value"],
 "data": [
  ["CCn1c2cc(-c3ccc(-c4cccs4)s3)ccc2c2ccc(-c3ccc(-c4cccs4)s3)cc21", 447],
  ["COc1ccc(N2c3sc4ccccc4c3Sc3c2sc2ccccc32)cc1", 549],
  ["CCCCC(CC)Cn1c2cc(C#N)ccc2c2ccc(C#Cc3ccc4ccc5c(C#Cc6ccc7c8ccc(C#N)cc8n(CC(CC)CCCC)c7c6)ccc6ccc3c4c65)cc21 (centres undefined)", 400],
  ["c1ccc(C2CCN3COc4c5ccccc5c5c6c7c(c2c3c46)C(c2ccccc2)CCN7CO5)cc1 (centres undefined)", 600],
  ["O=S(=O)(c1ccccc1)c1ccc(-c2ccc3c4ccc(-c5ccc(S(=O)(=O)c6ccccc6)cc5)cc4n(-c4ccccc4)c3c2)cc1", 411],
  ["O=c1c2cc(C#Cc3ccccc3)ccc2nc2ccc(C#Cc3ccccc3)cn12", 478],
  ["COC(=O)C1=C(C(=O)OC)C2(c3ccccc3-c3c(Br)cc(Br)cc32)C2(/C=C/c3ccccc3)c3cc(OC)c(OC)cc3CCN12 (centres undefined)", 491],
  ["F[B-]1(F)n2c(c3c(c2-c2ccccc2)C2C=CC3CC2)C(c2ccccc2)=C2C3=C(C(c4ccccc4)=[N+]21)C1C=CC3CC1 (centres undefined)", 588],
  ["CCCCN1C(=O)c2cc(Oc3ccc(C(C)(C)C)cc3)c3c4c(Oc5ccc(C(C)(C)C)cc5)cc5c(=O)n6c(c7cc(Oc8ccc(C(C)(C)C)cc8)c(c8c(Oc9ccc(C(C)(C)C)cc9)cc(c2c38)C1=O)c4c57)=Cc1ccc2ccccc2[n+]1[B-]6(F)F", 684],
  ["CCC(C)[Si](C#Cc1c2nc3c4ccccc4c(=O)c4ccccc4c3nc2c(C#C[Si](C(C)CC)(C(C)CC)C(C)CC)c2nc3c4ccccc4c(=O)c4ccccc4c3nc12)(C(C)CC)C(C)CC (centres undefined)", 571],
  ["C1=Cc2nc1c(-c1cccs1)c1ccc([nH]1)c(-c1cccs1)c1nc(c(-c3cccs3)c3ccc([nH]3)c2-c2cccs2)C=C1", 670],
  ["O=Cc1ccc(C2=C3C=c4c(oc5ccccc45)=[N+]3[B-](F)(F)n3c2cc2c4ccccc4oc23)cc1", 618.5],
  ["Cc1cccc(C2=CC3=C(c4c(C)cc(C)cc4C)c4cc(-c5cccc(C)c5)c(-c5cccc(C)c5)n4[B-](F)(F)[N+]3=C2c2cccc(C)c2)c1", 627],
  ["CCCCC(CC)Cn1c2cc(C#N)ccc2c2ccc(C#Cc3ccc4ccc5cccc6ccc3c4c56)cc21 (centres undefined)", 420]
]}

* * *

# Procedure details: solvent given as SMILES
# Run conditions: in CCOCC
YES means recorded emission maximum is 400 nm or above; NO means it is below 400 nm.

{"columns": ["Substance smiles", "Assigned label"],
 "data": [
  ["COc1cccc(/C=C/c2ccccc2)c1", "NO"],
  ["CN(C)c1ccc(/C=C2\\CCCC2=O)cc1", "YES"],
  ["CC(=O)Nc1ccc(/C=C2\\OC(=O)c3cc(N)ccc32)cc1", "YES"],
  ["N#Cc1ccc(-c2ccc3c(c2)c2cc(-c4ccc(C#N)cc4)ccc2c2c3nc(-c3ccc(-c4ccc(N(c5ccccc5)c5ccccc5)cc4)cc3)n2-c2ccccc2)cc1", "YES"],
  ["CN(C)c1cc(C#N)c(N(C)C)c(C#N)c1", "YES"],
  ["c1ccc2cc(-n3cnc4ccccc43)ccc2c1", "NO"]
]}

* * *

# Procedure details: solvent given as SMILES
# Run conditions: in CC#N

{"columns": ["Compound", "emission maximum, nm"],
 "data": [
  ["CCc1c(C)[nH]c(C2=[N+]3C(=Cc4c(C)c(CC)c(C)n4[B-]3(F)F)c3ccccc32)c1C", 643],
  ["Fc1c(F)c(F)c([B-]2(c3c(F)c(F)c(F)c(F)c3F)Oc3c(ccc4c5c(ccc34)C=[N+](c3ccccc3)[B-](c3c(F)c(F)c(F)c(F)c3F)(c3c(F)c(F)c(F)c(F)c3F)O5)C=[N+]2c2ccccc2)c(F)c1F", 577],
  ["CCCCCCc1ccc2c(/C=N/c3cc(/N=C/c4c(O)ccc5cc(CCCCCC)ccc45)cc(/N=C/c4c(O)ccc5cc(CCCCCC)ccc45)c3)c(O)ccc2c1", 507],
  ["COc1ccc(/C=N/c2cc(C(C)C)c(O)cc2C)cc1", 411],
  ["Cc1ccc(C(=O)/C=C2\\C(=O)Nc3ccccc32)cc1C", 413],
  ["CCN(CC)c1ccc(-c2ccc(-c3nc(N4CCOCC4)c4ccccc4n3)s2)cc1", 544],
  ["c1ccc2c(-c3ccc4sc5ccc(-c6c7ccccc7cc7ccccc67)cc5c4c3)c3ccccc3cc2c1", 402.78],
  ["COc1cccc(/C=C/c2ccccc2)c1", 359],
  ["CCOC(=O)c1c(C=Cc2ccccc2)oc(NC2CCCCC2)c1C(=O)OCC", 460],
  ["CCOC(=O)CN(CC(=O)OCC)c1ccc(-c2cc(-c3ccncc3)nc(-c3ccncc3)c2)cc1", 482],
  ["C(=C\\c1cc(/C=C/c2ccc(N(c3ccccc3)c3ccccc3)cc2)nc(/C=C/c2ccc(N(c3ccccc3)c3ccccc3)cc2)n1)/c1ccc(N(c2ccccc2)c2ccccc2)cc1", 589],
  ["Oc1ccccc1/C=N/CC/N=C/c1ccccc1O", 461],
  ["F[B-]1(F)N2C(=Nc3cccc4cccc2c34)c2cccc[n+]21", 413],
  ["CN(C)c1cc(C#N)c(N(C)C)c(C#N)c1", 529.94],
  ["Cc1cccc(C2=CC3=C(c4c(C)cc(C)cc4C)c4cc(-c5cccc(C)c5)c(-c5cccc(C)c5)n4[B-](F)(F)[N+]3=C2c2cccc(C)c2)c1", 620],
  ["COC1(OC)C2(Cl)c3nc4cc(-c5cccs5)ccc4nc3C1(Cl)C1C[C@H]3[C@@H](CC12)C1(Cl)c2nc4ccc(-c5cccs5)cc4nc2C3(Cl)C1(OC)OC (stereo partly drawn)", 461],
  ["CC(=O)Nc1cc2ccc3cccc4ccc(c1)c2c34", 388],
  ["NS(=O)(=O)c1ccc(N2N=C(c3ccc(O)cc3)CC2c2ccc(Br)cc2)cc1 (stereo not drawn)", 417]
]}
